# System: KKA^y mice
# methodNotes: Total cholesterol lowering action and plasma anti-arteriosclerosis index enhancing action in mice (Test Example 2)
# Format: in vivo
# testConditions: Mus musculus, po, 96 h, percent reduction of plasma total cholesterol level vs non-administration group, 0.005% in powdery diet, four days
Give measured inhibition in vivo at 0.005 % for each item. Keep answers brief.
Report as a plain number; the unit % is understood.

[in] Answer with inhibition in vivo at 0.005 % of Cc1oc(-c2ccccc2)nc1COc1ccc(COc2ccccc2CC(=O)O)cn1 [Example 41] measured for KKA^y mice.
[out] 25

[in] Answer with inhibition in vivo at 0.005 % of Cc1sc(-c2ccccc2)nc1COc1ccc(COc2ccccc2CC(=O)O)cc1 [Example 52] measured for KKA^y mice.
[out] 26

[in] Answer with inhibition in vivo at 0.005 % of Cc1oc(-c2ccccc2)nc1CCc1ccc(COc2ccccc2CC(=O)O)cc1 [Example 97] measured for KKA^y mice.
[out] 27

[in] Answer with inhibition in vivo at 0.005 % of Cc1ccc(OCc2ccc(OCc3nc(-c4ccccc4)oc3C)cc2)c(CC(=O)O)c1 [Example 15] measured for KKA^y mice.
[out] 25

[in] Answer with inhibition in vivo at 0.005 % of COc1cc(COc2ccccc2CC(=O)O)ccc1OCc1nc(-c2ccccc2)oc1C [Example 48] measured for KKA^y mice.
[out] 17

[in] Answer with inhibition in vivo at 0.005 % of Cc1oc(-c2ccccc2)nc1COc1ccc(COc2ccccc2CC(=O)O)cc1 [Example 11] measured for KKA^y mice.
[out] 23

[in] Answer with inhibition in vivo at 0.005 % of Cc1oc(-c2ccccc2)nc1COc1ccc(COc2ncccc2CC(=O)O)cn1 [Example 88] measured for KKA^y mice.
[out] 10

[in] Answer with inhibition in vivo at 0.005 % of Cc1oc(-c2ccccc2)nc1COc1ccc(COc2ncccc2CC(=O)O)cc1 [Example 36] measured for KKA^y mice.
[out] 19

[in] Answer with inhibition in vivo at 0.005 % of Cc1oc(-c2ccc3ccccc3c2)nc1COc1ccc(COc2ncccc2CC(=O)O)cc1 [Example 130] measured for KKA^y mice.
[out] 16
